test: Half life in Wistar rat plasma at 3 mg/kg, po by HPLC-MS/MS analysis
REPORTED PROPERTY: half-life (min)

>>> result("OC1Cc2cc(Cl)ccc2-n2c(nnc2[C@H]2CC[C@H](Oc3ccccn3)CC2)C1 (mixture of isomers)")
90

---

test: in vitro; details: CD-1, mouse, liver microsomes
Reported values of log10 microsomal CLint at 1 µM for individual entries
REPORTED PROPERTY: log10 microsomal CLint at 1 µM (log10 of the value in µL/min/mg)

>>> result("CC(C)(C)C(=O)N[C@@H]1Cc2cc(Cl)ccc2-n2c(nnc2[C@H]2CC[C@H](Oc3ccccn3)CC2)C1")
2.38
>>> result("CO[C@@H]1Cc2cc(Cl)ccc2-n2c(nnc2[C@H]2CC[C@H](Oc3ccccn3)CC2)C1")
1.40
>>> result("N#CCC(=O)N[C@@H]1Cc2cc(Cl)ccc2-n2c(nnc2[C@H]2CC[C@H](Oc3ccccn3)CC2)C1")
1.28
>>> result("O=C(N[C@@H]1Cc2cc(Cl)ccc2-n2c(nnc2[C@H]2CC[C@H](Oc3ccccn3)CC2)C1)C1CC1")
1.34
>>> result("O=C(N[C@@H]1Cc2cc(Cl)ccc2-n2c(nnc2[C@H]2CC[C@H](Oc3ccccn3)CC2)C1)C1CCC(F)(F)CC1")
2.19
>>> result("Clc1ccc2c(c1)CC1(Cc3nnc([C@H]4CC[C@H](N5CCOCC5)CC4)n3-2)OCCO1")
0.85
